src = the supplement of paper PMC10065799

# Tested on: c-Src
# ASSAY: phosphorylation enrichment, bacterial display (enrichment ratio); higher = better substrate or ligand; peptides without Tyr show the background
Record 1.0 whenever phosphorylation enrichment is at 0.4 or higher; record 0.0 when lower.

- WAMPAYNRSKL [WWOX_Y293_L291P]: 0.0
- AVDDKYSRREE [SART1_Y685_I681V]: 1.0
- FVGGFYGGCNE [CTSC_Y352_YF]: 1.0
- SAEKAYHEQLS [TUBA1A_Y282]: 0.0
- KVALLYKPYFY [POLE_Y100_P99L]: 1.0
- VNYGAYINYFK [GLB1_Y488_D491Y]: 1.0
- HSGVSYFINLC [IGF2R_Y2024_N2020S_YF]: 1.0
- GFCSWYRGWAP [TIMP3_Y195_YF]: 1.0
- FKPENYRRLDI [VHL_Y175_V170F]: 0.0
- YRVDCYKNFVA [FHL1_Y213_C209R]: 1.0
- LHRAHYDLCHT [AHSG_Y314_R317C]: 1.0
- CENNRYGMGAS [PDHA1_Y227_T231A]: 0.0

* * *

# MEASURED_ON: Hck (UniProt P08631)
# Sequence (P08631 whole entry, looked up): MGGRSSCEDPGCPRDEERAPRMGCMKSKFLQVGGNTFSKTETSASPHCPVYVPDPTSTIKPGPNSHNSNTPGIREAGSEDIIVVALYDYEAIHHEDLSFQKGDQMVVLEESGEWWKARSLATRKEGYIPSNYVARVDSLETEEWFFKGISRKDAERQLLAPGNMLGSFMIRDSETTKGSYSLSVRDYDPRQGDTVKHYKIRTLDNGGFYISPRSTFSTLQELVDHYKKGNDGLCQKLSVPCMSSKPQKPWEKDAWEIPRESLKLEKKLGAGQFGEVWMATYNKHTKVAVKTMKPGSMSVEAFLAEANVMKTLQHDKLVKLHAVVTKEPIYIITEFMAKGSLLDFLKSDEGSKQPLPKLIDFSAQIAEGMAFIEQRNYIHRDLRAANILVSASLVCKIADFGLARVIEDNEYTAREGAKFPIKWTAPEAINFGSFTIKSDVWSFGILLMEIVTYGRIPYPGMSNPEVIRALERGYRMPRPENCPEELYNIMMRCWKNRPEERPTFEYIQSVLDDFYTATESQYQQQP
# ASSAY: phosphorylation enrichment, bacterial display (enrichment ratio); higher = better substrate or ligand; peptides without Tyr show the background
Record met whenever phosphorylation enrichment is at 0.6 or higher; record not met when lower.

* QTLTDYDTRFY [CSNK2A3_Y131_I133T] | met
* LDLSYYPTSSS [EMD_Y182] | met
* EEALYYLTRVE [SET_Y119_H118Y] | met
* SAEKAYHEQLS [TUBA1A_Y282] | not met
* KSLFHYRQYSA [CPS1_Y1491] | not met
* QMQNPYSRHSS [MUC13_Y501] | not met
* KLLPEYPGILS [DHFR2_Y163_V166I] | not met
* AIMSFYAALID [RYR1_Y2426] | not met
* CTTIHYNDMCN [TP53_Y234_Y236D] | not met
* CTTLHYNYMCN [TP53_Y234_I232L] | not met
* AKLKDYYIFNK [CCDC42_Y149] | not met
* FNSLLYQVPTS [CALCOCO2_Y358_P357L] | met
* LENSTYQFICV [CRB1_Y760_R764C_YF] | met
* IHTEFYDGLFP [BCR_Y561_K558T] | met
* NSRYTYKLEVK [USH2A_Y3747] | not met
* NPIGLYSAEIL [LDB3_Y202_T206I] | met
* NEKNIYRVPLM [BMPR2_Y247] | met
* VFFGSYSCPFG [NKAP_Y104_R106C_YF] | not met
* SVTCTYSLALN [TP53_Y126_P128L] | met
* TKVVHYWKWIK [KLK2_Y249_R250W] | not met
* EADRKYEEVAG [TPM3_Y163_R168G] | not met
* IVRSPYEDLED [VHL_Y185_L184P] | not met
* ILNANYMAKRL [GLDC_Y839] | not met
* WTAHSYRMGSA [ARHGEF7_Y785_T790A] | not met
* LAARFYNWVSF [FLT4_Y1231_YF] | not met
* SVNCTYSPALN [TP53_Y126_T123N] | met
* KQELVYTNKKL [OPTN_Y356] | met

* * *

# MEASURED_ON: Fes (UniProt P07332)
# Sequence (P07332 whole entry, looked up): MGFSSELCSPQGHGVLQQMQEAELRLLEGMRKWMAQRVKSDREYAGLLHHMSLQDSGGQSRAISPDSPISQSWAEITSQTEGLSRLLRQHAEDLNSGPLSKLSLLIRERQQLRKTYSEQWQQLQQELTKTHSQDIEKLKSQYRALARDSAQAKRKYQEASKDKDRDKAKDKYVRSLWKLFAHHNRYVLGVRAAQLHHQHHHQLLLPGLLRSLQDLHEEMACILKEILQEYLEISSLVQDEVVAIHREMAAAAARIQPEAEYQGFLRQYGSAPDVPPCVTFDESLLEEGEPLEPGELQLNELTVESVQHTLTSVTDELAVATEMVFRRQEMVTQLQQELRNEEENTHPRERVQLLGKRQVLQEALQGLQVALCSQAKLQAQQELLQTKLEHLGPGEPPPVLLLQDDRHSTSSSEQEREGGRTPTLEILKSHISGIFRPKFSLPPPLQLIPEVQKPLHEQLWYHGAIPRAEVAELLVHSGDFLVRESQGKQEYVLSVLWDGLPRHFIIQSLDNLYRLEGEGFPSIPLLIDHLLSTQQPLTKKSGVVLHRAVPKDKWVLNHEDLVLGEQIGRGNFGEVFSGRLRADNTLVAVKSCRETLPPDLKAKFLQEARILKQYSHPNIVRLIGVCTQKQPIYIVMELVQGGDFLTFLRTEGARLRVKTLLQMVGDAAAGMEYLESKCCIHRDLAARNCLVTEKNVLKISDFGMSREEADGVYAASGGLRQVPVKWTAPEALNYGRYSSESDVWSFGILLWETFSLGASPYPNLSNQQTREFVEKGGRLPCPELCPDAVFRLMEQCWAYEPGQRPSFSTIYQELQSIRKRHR
# ASSAY: phosphorylation enrichment, bacterial display (enrichment ratio); higher = better substrate or ligand; peptides without Tyr show the background
MEASURE_NAME: phosphorylation enrichment

- LIFTNYEAGKD [GSTP1_Y112_YF]: 1.39
- KIPGRYYETGS [PAX2_Y72_L69P]: 0.713
- RQNQEYEILMD [KRT39_Y379_L383M]: 1.45
- ANAFIYDVQLP [L1CAM_Y420_V421D_YF]: 0.938
- AVDDKYSRREE [SART1_Y685_I681V]: 0.977
- KSSDVYVSYDY [SORL1_Y136]: 1.07
- IYGASYVPFAA [RBM47_Y541]: 0.687
- VLTSKHRGGGG [HBA1_Y141_Y141H]: 0.396
- KANEFYPVVLI [ADAMTS18_Y765_YF]: 1.15
- YLRTGYSVPYG [TGM1_Y370]: 0.685
- VQEDIYDEFVV [ALDH2_Y332_E337V]: 1.25
- RESVSYLFSHV [PRPS1_Y311_G306R]: 1.12
- VIGRMYDYHVL [RPF2_Y109]: 0.859
- KMKGDYYRSLA [YWHAG_Y130_Y133S]: 0.562

* * *

# MEASURED_ON: MERTK (UniProt Q12866)
# Sequence (Q12866 whole entry, looked up): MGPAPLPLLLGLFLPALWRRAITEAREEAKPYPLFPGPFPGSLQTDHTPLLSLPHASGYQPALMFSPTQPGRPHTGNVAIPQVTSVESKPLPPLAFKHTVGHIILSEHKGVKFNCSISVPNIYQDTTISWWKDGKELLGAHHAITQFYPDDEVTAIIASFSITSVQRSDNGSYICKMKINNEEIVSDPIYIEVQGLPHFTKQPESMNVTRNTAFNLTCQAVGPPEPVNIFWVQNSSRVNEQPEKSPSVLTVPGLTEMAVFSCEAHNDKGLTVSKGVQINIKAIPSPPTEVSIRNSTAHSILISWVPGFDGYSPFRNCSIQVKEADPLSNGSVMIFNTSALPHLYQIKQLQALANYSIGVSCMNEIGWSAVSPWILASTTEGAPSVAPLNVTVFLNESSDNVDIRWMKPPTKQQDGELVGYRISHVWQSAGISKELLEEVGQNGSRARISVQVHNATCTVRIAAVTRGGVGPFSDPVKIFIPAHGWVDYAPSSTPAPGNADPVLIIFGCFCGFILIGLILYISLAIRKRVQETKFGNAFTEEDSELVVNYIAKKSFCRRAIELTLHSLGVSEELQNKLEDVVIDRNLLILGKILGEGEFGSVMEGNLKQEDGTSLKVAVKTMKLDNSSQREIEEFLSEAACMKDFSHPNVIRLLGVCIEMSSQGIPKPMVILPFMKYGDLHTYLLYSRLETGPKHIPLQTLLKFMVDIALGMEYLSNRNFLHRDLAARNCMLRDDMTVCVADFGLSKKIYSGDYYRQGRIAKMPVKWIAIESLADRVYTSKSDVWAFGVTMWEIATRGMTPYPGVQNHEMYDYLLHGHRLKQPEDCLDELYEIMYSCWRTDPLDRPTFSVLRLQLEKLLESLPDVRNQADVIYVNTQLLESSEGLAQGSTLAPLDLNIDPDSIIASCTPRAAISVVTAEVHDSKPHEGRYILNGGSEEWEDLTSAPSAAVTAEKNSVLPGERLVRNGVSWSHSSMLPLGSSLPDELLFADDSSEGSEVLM
# ASSAY: phosphorylation enrichment, bacterial display (enrichment ratio); higher = better substrate or ligand; peptides without Tyr show the background
Categories are defined by ranges of phosphorylation enrichment, namely lower band = under 0.5, central band = from 0.5 up to 0.6, upper band = 0.6 and over

- SNFRAYATEPQ [TNNI3_Y29_H34Q_YF]: lower band
- HVKHNYECLVF [XRCC5_Y416_I412V_YF]: upper band
- ECKLFYSRKEG [PTPN11_Y263_L262F]: central band
- TYGQVYKGRHV [TNIK_Y40]: upper band
- KLSCSYSHLSA [C4BPA_Y470_W473L]: central band
- YSIAQYCCRMG [LRRK2_Y2023_G2019S]: upper band
- SKNFTYIWWLN [PSG4_Y271_YF]: lower band
- KKCTRYIDCDL [ASPA_Y64]: lower band
- ALAAPYVLFPG [CEFIP_Y1332_YF]: upper band
- TLARLYHRDST [LRIG1_Y1029_P1031R]: central band
- GADDSYYTARS [ZAP70_Y492]: lower band
- ESAAIYNPVIY [RHO_Y301_K296E]: upper band
- CITIHYNYMCN [TP53_Y234_T230I]: lower band
- ACDALYPPGPP: lower band
- EKKKFYDAKIE [CASP5_Y104_T106A_YF]: lower band
- VIKSSYQVAKA [CPT1B_Y534_E531K]: lower band
- RKRQFYLFKGK [RSPO4_Y112_C107R_YF]: upper band
- QERPEYWDQET [HLA-A_Y83_G80R]: central band
- QYNPEYVQQAS [LRRC7_Y1058_H1054Y]: upper band
- LVTAWYIGFLC [KCNQ2_Y237]: upper band
- GKANRYFSPNF [PTEN_Y336_D331G]: lower band
- QAQMDYRRLQP [MPL_Y591]: lower band
- IMFTSYFLTIL [TAS2R16_Y239_V235M]: lower band
- IGEGTYGVLFK [CDK2_Y15_V18L_YF]: upper band

* * *

# MEASURED_ON: SHP2-C SH2
# ASSAY: SH2 binding enrichment of the phosphorylated peptide, bacterial display (enrichment ratio); higher = better substrate or ligand; peptides without Tyr show the background
Record Met whenever SH2 binding enrichment is at 0.7 or higher; record Not met when lower.

• TENAGYFFRVS = Not met
• LRTAVYHEILI [CREBBP_Y1450] = Met
• QDRTYYERVRT [SPEN_Y633_S635R] = Met
• VIDGKYAFKPK [GTF2E2_Y137] = Not met
• KIPGRYYETGS [PAX2_Y72_L69P] = Met
• VEDQYYRVDCY [FHL1_Y208_C209R] = Not met
• VNYGAYINYFK [GLB1_Y488_D491Y] = Met
• FSKTQYNQVPR [CXADR_Y318_S323R_YF] = Met
• ALADKYHGGGG [HBB_Y146_H144D] = Not met
• RLGVTYEQALA [MAP2_Y996_G991R] = Not met
• SWSTSYSGYRY [NKAPL_Y91] = Met
• MGRVNYGAFIN [GLB1_Y485_YF] = Met

* * *

# MEASURED_ON: FGFR1 (UniProt P11362)
# Sequence (P11362 whole entry, looked up): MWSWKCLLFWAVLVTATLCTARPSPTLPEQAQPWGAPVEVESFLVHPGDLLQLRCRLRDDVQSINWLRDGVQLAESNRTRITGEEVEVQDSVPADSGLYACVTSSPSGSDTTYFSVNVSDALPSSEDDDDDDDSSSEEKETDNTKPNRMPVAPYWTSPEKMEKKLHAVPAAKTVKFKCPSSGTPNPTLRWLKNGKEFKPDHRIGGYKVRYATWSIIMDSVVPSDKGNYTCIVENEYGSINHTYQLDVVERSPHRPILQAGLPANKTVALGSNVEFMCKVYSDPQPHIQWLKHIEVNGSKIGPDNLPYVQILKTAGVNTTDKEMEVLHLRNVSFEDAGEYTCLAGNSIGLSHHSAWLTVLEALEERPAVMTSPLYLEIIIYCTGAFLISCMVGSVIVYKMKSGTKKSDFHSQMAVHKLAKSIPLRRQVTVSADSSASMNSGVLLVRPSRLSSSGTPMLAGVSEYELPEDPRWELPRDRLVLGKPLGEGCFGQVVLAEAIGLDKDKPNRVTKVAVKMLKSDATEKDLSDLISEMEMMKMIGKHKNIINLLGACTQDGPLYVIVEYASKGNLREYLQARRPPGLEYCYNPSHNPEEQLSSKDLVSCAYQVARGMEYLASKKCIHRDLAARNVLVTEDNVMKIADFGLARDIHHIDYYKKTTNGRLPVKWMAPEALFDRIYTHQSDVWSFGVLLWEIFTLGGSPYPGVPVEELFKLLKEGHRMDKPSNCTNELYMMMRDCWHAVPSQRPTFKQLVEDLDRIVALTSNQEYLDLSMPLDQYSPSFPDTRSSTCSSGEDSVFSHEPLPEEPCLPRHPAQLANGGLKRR
# ASSAY: phosphorylation enrichment, bacterial display (enrichment ratio); higher = better substrate or ligand; peptides without Tyr show the background
MEASURE_NAME: phosphorylation enrichment

• EHLNRYINDTF [TTLL10_Y446_S448N] = 0.525
• LIDGFYRLTED [JAK2_Y373_A377E_YF] = 0.537
• CENNRYGMGAS [PDHA1_Y227_T231A] = 0.413
• DEGVNHFMSKG [FBXO8_Y156_Y156H] = 0.436
• ELQDDYEDTME [SLC4A1_Y8_M11T] = 0.649
• ILTFKYLQIPM [KIT_Y547_K550I_YF] = 0.442
• QMVGMYASSSM [AVPR2_Y124_Y128S] = 0.477
• YADGVYQALEE [DUOX2_Y70] = 0.751
• PQGVRYTYTID [DCX_Y103_I104T] = 0.57
• GLDGSYLLRFS [SH2D1A_Y29_D33Y_YF] = 0.385
• EFRFIYMAVQH [PTPN11_Y515_Q510E_YF] = 0.555
• IRTGIYHGGEP [PIK3CA_Y361_V356I] = 0.385
• PNQRRYVYYYS [PTEN_Y174_S170N] = 3
• KLASTYREAAT [DEAF1_Y483_H479L] = 0.352
• NSNAAYEQSHF [LRIF1_Y714] = 0.48
• TTEHIYGDNFF [UBA7_Y524] = 0.417
• FARECYSALPQ [SARS2_Y52_G51C_YF] = 1.17
• FDGKDYIALNE [HLA-A_Y147_YF] = 0.601
• IGEGTYGVLFK [CDK2_Y15_V18L_YF] = 0.38
• KASVDYIRKLQ [MITF_Y360] = 0.364
• LHRAHYDLCHT [AHSG_Y314_R317C] = 0.513
• NLNGKCNKPRA [ANGPTL3_Y417_Y417C] = 0.39
• RQLEIYRASRP [ERCC4_Y594] = 0.312
• ANYTEYVATSW [CDKL5_Y171_R175S] = 3.44
• DRLASYRDKVR [KRT12_Y139_L140R] = 0.27
• QDGFSYLSRQM [LDLR_Y847_P848L_YF] = 0.872
• KKCTRYIDCDL [ASPA_Y64] = 0.623
• SCRENYSFSEE [LEMD3_Y258_D260Y_YF] = 0.452
